Every entry's value here was drawn from PubChem BioAssay (NCI).

Test system: 786-0 renal
protocol.notes: NCI-60 one-dose screen, 48 h (100 = growth as untreated, 0 = no growth, -100 = all killed)
particulars: 10 µM unless noted
This is part of a sample that, as a whole, favours compounds with a hit. Of some 83,000 tested, about 20% had one in any assay.
Quick rule: growth of at least 90% means Fulfilled, below that means Not fulfilled.

compound=NC(=O)c1c(NC(=O)c2ccccc2C(F)(F)F)sc2c1CCC(=O)C2 target_or_test_system="786-0 renal" class_label="Not fulfilled"
compound=COc1ccc(NC(=O)CSc2nnc(-c3ccc4nc(-c5ccc(OC)c(OC)c5)[nH]c4c3)o2)cc1OC target_or_test_system="786-0 renal" class_label=Fulfilled
compound=CS(=O)(=O)Nc1cc(-c2ccc3ncc(C#N)c(NCc4ccccc4O)c3c2)cnc1Cl target_or_test_system="786-0 renal" class_label="Not fulfilled"
compound=CC(=O)c1nnn(-c2c(C(=O)n3nc(C)cc3C)sc(=S)n2-c2ccccc2)c1C target_or_test_system="786-0 renal" class_label=Fulfilled
compound="CCCn1cnc2c(c1=N)C(c1ccc(OC)cc1)c1sc3c(CC)cccc3c1O2 (centres undefined)" target_or_test_system="786-0 renal" class_label="Not fulfilled"
compound=O=C(CCn1c[n+](CC(=O)c2ccc(-c3ccccc3)cc2)c2ccccc21)Nc1cccc2cccnc12 target_or_test_system="786-0 renal" class_label="Not fulfilled"
compound=Cc1ccc(CSc2nc(-c3ccc(Cl)cc3)c(C#N)c(N3CCNCC3)n2)cc1 target_or_test_system="786-0 renal" class_label="Not fulfilled"
compound=COc1cc(/C=C/C(=O)c2ccc(NC(=O)CSc3nnc(-c4ccc(-c5nc6ccc(Cl)cc6[nH]5)cc4)o3)cc2)cc(OC)c1OC target_or_test_system="786-0 renal" class_label=Fulfilled

====

Tested on: SNB-19 CNS
protocol.notes: NCI-60 one-dose screen, 48 h (100 = growth as untreated, 0 = no growth, -100 = all killed)
particulars: 10 µM unless noted
This is part of a sample that, as a whole, favours compounds with a hit. Of some 83,000 tested, about 20% had one in any assay.
measured.endpoint: growth (%)

compound=CN(Cc1ccccc1)S(=O)(=O)/N=C1\NC(=O)NC1=C(Cl)Cl measured_endpoint=growth readout_value=68.6
compound=CCCCCc1ccc(S(=O)(=O)Nc2cccc(-c3csc(NC(=O)CN4CCN(CCO)CC4)n3)c2)cc1 measured_endpoint=growth readout_value=82.6
compound="CCC1=Cc2cc(OC)ccc2OC12C=Cc1cc(OC)ccc1O2 (centres undefined)" measured_endpoint=growth readout_value=20.8
compound=Oc1cccc2ccc(-c3nnc(SCc4ccc(O)c5ncccc45)n3-c3ccccc3)nc12 measured_endpoint=growth readout_value=9.4
compound=CCN(CC)c1ccc(NC2=C(Cl)C(=O)c3nc(C)ccc3C2=O)cc1 measured_endpoint=growth readout_value=102
compound=CNC(=O)c1cc(-c2ccc(NC(=S)Nc3cc(C(F)(F)F)cc(C(F)(F)F)c3)cc2)nc2cccnc12 measured_endpoint=growth readout_value=104
compound=C=C=COc1cccc(/C(N)=N/C(N)=N/c2nc3ccccc3s2)c1 measured_endpoint=growth readout_value=97.5
compound=Cc1cc(C)c2sc(=O)n(Cc3nnc(SCCC(=O)O)o3)c2n1 measured_endpoint=growth readout_value=95.4
compound=COc1ccc(S(=O)(=O)NCCCNc2nccc(-c3[nH]c(-c4ccccc4)nc3-c3ccc(Cl)c(O)c3)n2)cc1 measured_endpoint=growth readout_value=105
